biological target: α1β3γ2L GABAA receptors (UniProt P22723+P28472+P62813); experiment: Patch-clamp of recombinant α1β3γ2L GABAAR in HEK293 cells; conditions: read-out: IC50 of block of GABA-evoked steady-state currents
Sequence (P62813 28-455, one chain of several): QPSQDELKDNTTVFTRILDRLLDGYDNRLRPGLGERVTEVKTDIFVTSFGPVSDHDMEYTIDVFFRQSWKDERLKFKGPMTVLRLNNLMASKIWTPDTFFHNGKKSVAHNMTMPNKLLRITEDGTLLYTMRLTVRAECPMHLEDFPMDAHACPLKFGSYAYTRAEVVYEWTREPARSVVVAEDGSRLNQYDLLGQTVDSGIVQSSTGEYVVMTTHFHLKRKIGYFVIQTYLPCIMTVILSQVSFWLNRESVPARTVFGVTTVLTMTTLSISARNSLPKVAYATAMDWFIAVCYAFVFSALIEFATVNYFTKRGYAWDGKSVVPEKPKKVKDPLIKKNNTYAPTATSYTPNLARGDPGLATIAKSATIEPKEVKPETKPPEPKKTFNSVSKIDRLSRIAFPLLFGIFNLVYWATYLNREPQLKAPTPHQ
Sequence (P22723 39-474, one chain of several): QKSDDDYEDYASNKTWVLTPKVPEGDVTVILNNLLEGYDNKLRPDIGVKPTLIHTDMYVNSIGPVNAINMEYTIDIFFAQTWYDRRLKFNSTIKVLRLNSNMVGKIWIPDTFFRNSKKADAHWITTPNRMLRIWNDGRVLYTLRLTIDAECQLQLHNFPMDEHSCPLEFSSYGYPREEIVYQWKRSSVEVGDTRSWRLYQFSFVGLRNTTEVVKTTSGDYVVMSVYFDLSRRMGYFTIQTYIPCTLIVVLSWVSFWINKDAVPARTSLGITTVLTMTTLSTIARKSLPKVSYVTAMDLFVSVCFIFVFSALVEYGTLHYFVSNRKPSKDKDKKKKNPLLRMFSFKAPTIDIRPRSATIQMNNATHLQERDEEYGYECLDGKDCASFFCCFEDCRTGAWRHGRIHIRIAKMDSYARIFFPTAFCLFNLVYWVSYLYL
observable: pIC50
Friendly reminder that pIC50 comes from taking -log10 of the concentration in mol/L.

Please indicate recorded pIC50 of C[C@H](CCC(=O)O)[C@H]1CC[C@H]2[C@@H]3[C@@H](O)C[C@@H]4C[C@H](O)CC[C@]4(C)[C@H]3CC[C@]12C [UDCA, ursodeoxycholic acid] measured with α1β3γ2L GABAA receptors (UniProt P22723+P28472+P62813).
4.14

* * *

target: α1V256Sβ2γ2L GABAA receptors (UniProt P22723+P62813+P63138, V283S); assay: Patch-clamp of mutant α1V256Sβ2γ2L GABAAR in HEK293 cells; settings: n = 4
Sequence (P62813 28-455 V283S, one chain of several): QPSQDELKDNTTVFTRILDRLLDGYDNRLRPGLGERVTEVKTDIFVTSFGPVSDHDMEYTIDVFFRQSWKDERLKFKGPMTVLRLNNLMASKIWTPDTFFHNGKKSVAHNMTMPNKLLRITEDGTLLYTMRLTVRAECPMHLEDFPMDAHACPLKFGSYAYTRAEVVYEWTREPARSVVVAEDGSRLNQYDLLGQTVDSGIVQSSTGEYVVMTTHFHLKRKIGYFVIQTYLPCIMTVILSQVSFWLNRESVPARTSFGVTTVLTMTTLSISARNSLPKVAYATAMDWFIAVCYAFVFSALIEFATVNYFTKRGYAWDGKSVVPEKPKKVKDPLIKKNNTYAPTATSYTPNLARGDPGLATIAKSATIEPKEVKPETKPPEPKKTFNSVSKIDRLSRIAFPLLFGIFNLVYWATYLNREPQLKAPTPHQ
Sequence (P63138 25-474 limits assumed, one chain of several): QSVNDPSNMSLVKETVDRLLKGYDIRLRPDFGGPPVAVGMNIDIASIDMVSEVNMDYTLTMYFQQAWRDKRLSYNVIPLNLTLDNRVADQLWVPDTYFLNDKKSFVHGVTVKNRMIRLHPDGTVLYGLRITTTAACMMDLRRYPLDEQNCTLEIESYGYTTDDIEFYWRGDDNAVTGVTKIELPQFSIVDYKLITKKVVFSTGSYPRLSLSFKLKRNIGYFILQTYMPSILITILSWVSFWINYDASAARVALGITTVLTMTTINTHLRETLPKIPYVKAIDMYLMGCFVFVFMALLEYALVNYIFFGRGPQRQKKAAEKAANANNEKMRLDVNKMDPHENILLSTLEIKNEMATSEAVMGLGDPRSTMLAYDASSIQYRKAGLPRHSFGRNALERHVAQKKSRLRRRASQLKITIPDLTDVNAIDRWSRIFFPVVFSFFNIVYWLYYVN
observable: IC50 (µM)
// note: answer is a bare numeric in µM

Given the compound C[C@H](CCC(=O)O)[C@H]1CC[C@H]2[C@@H]3[C@@H](O)C[C@@H]4C[C@H](O)CC[C@]4(C)[C@H]3CC[C@]12C [UDCA, ursodeoxycholic acid] , write its reported IC50.
330

* * *

What Kd was measured for each of the following?
target: GABAA receptor; experiment: Voltage dependence of GABAAR block (Woodhull analysis); type: cell-based; conditions: Woodhull fit, Eq. 3; read-out: KD(0), dissociation constant at 0 mV
// note: answer is a bare numeric in µM

Given the compound C[C@H](CCC(=O)O)[C@H]1CC[C@H]2[C@@H]3[C@@H](O)C[C@@H]4C[C@H](O)CC[C@]4(C)[C@H]3CC[C@]12C [UDCA, ursodeoxycholic acid] , write its reported Kd.
64

Given the compound C[C@H](CCC(=O)O)[C@H]1CC[C@H]2[C@@H]3[C@H](O)C[C@@H]4C[C@H](O)CC[C@]4(C)[C@H]3CC[C@]12C [CDOC, chenodeoxycholate] , write its reported Kd.
42

Given the compound C[C@H](CCC(=O)O)[C@H]1CC[C@H]2[C@@H]3C(=O)C[C@@H]4CC(=O)CC[C@]4(C)[C@H]3CC(=O)[C@]12C [dehydrocholate] , write its reported Kd.
1400

Given the compound C[C@H](CCC(=O)O)[C@H]1CC[C@H]2[C@@H]3[C@H](O)C[C@@H]4C[C@H](O)CC[C@]4(C)[C@H]3C[C@H](O)[C@]12C [cholate] , write its reported Kd.
710

* * *

tested on: native GABAA receptors; assay: GABA-evoked whole-cell currents in acutely isolated TMN neurons (wild type); type: cell-based, mouse; details: wild type neurons, n = 5; read-out: EC50 of GABAAR modulation by vertacetal
observable: pEC50
Friendly reminder that pEC50 comes from taking -log10 of the concentration in mol/L.

Given the compound CC1CC(C)(c2ccccc2)OC(C)O1 (stereo not shown) , write its reported pEC50.
4.87

* * *

Molecular target: β3 homopentameric GABAA receptors (Homo sapiens)
Sequence (P28472 26-473): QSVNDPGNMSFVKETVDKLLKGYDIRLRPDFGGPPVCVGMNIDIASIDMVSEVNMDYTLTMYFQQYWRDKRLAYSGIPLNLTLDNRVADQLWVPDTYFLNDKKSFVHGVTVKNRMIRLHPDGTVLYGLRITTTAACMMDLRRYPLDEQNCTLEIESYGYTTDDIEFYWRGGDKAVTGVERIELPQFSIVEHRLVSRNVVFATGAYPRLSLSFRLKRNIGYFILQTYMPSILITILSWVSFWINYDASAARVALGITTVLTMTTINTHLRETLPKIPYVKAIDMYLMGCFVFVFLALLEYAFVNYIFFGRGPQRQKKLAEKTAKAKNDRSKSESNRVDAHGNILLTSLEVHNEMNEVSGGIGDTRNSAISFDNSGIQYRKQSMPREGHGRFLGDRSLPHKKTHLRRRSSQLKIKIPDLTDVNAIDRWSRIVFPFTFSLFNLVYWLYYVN
Experiment: Block of spontaneous openings of β3 homopentameric receptors (outward shift of baseline current)
Details: roughly estimated; read-out: half-maximal effect on outward shift of baseline current
pIC50: −log10 of the molar value.
observable: pIC50

Given the compound `C[C@H](CCC(=O)O)[C@H]1CC[C@H]2[C@@H]3[C@@H](O)C[C@@H]4C[C@H](O)CC[C@]4(C)[C@H]3CC[C@]12C` , write its reported pIC50.
~4.00

* * *

Target: α1β3 GABAA receptors (UniProt P28472+P62813)
Sequence (P62813 28-455, one chain of several): as the sequence (P62813 28-455, one chain of several) above
Assay: Patch-clamp of recombinant α1β3 GABAAR in HEK293 cells
Settings: read-out: IC50 of block of GABA-evoked steady-state currents
Protocol: HEK 293 cells were obtained from DSM (Deutsche Sammlung von Mikroorganismen und Zellkulturen GmbH, DSM, Braunschweig). They were grown and maintained according to published standard protocols. Briefly, cells were grown in minimal essential medium supplemented with 10% fetal bovine serum, 100units/ml penicillin and streptomycin and 2 mM L-glutamine and splitted once per week. […]
observable: pIC50
Friendly reminder that pIC50 comes from taking -log10 of the concentration in mol/L.

Please indicate recorded pIC50 of `C[C@H](CCC(=O)O)[C@H]1CC[C@H]2[C@@H]3[C@@H](O)C[C@@H]4C[C@H](O)CC[C@]4(C)[C@H]3CC[C@]12C` measured with α1β3 GABAA receptors (UniProt P28472+P62813).
4.09

* * *

tested on: NMDA receptors; assay: NMDA-evoked currents in isolated neurons; format: cell-based; conditions: read-out: IC50 of NMDA receptor block; n = 4; NMDA 0.2 mM, Mg2+-free, 10 µM glycine
observable: IC50 (µM)
// note: answer is a bare numeric in µM

Given the compound `C[C@H](CCC(=O)O)[C@H]1CC[C@H]2[C@@H]3[C@@H](O)C[C@@H]4C[C@H](O)CC[C@]4(C)[C@H]3CC[C@]12C` , write its reported IC50.
540
